# test.protocol: physchem
# particulars: octanol/water, pH 7.4, logD
reported.endpoint: logD

// known answers, use as guide
{"query.smiles": "O=c1[nH]c2c(O)ccc(CCNCCCSCCOCCc3ccccc3)c2s1", "logD": 2.31}
{"query.smiles": "O=S(=O)(CCCNCCc1ccc(O)c2nc(O)sc12)NCCOCc1ccccc1", "logD": 1.11}
{"query.smiles": "O=S(=O)(CCCNCCc1ccc(O)c2nc(O)sc12)CCOCCCc1ccccc1", "logD": 2.1}
{"query.smiles": "O=S(=O)(CCCNCCc1ccc(O)c2nc(O)sc12)CCSCCc1ccccc1", "logD": 2.34}
{"query.smiles": "O=C(NCCCCCCNCCc1ccc(O)c2nc(O)sc12)Nc1ccccc1", "logD": 1.26}

[A] O=S(=O)(CCCOCCc1ccccc1)NCCNCCc1ccc(O)c2nc(O)sc12
[B] O=S(=O)(CCCNCCc1ccc(O)c2nc(O)sc12)CCOCCOc1ccccc1
[C] O=S(=O)(CCCOCCc1ccc(NS(=O)(=O)c2ccccc2)cc1)CCNCCc1ccc(O)c2nc(O)sc12
Prompt line: List these items ordered by logD, big to small. Reply with the item labels sorted in the order that was asked for.
Response line: C, A, B
